Test: Half life in dog liver microsomes
Assay type: ADME, Canis lupus familiaris, microsome
Settings: liver microsomes
quantity: half-life (min)
State the answer as a number, implicitly in min.

Incoming: What does the data say about its half-life? Entry: Oc1cccc(C2C[C@H]3CC[C@H](C2)N3CC(O)Cc2ccccc2)c1 (relative stereo; 23a)
Outgoing: 2

Incoming: Could you do the same for Oc1cccc(C2C[C@H]3CC[C@H](C2)N3Cc2c(F)cccc2F)c1 (relative stereo; 18a) , please?
Outgoing: 20

Incoming: Could you do the same for O=C(CN1[C@@H]2CC[C@@H]1CC(c1cccc(O)c1)C2)C1CCCCC1 (relative stereo; 22a) , please?
Outgoing: 2

Incoming: Could you do the same for O=C1c2ccccc2C(=O)N1CCCCN1[C@@H]2CC[C@@H]1CC(c1cccc(O)c1)C2 (relative stereo; 21a) , please?
Outgoing: 11

---

Tested on: Liver
Assay: Half life in rat liver microsomes
Format: ADME, microsome
Details: microsomes
quantity: t1/2 (min)
State the answer as a number, implicitly in min.

# molecule, t1/2 (min)
data = [
    ("NC(=O)c1cccc(C2C[C@H]3CC[C@H](C2)N3CC(=O)C2CCCCC2)c1 (relative stereo; 30b)", 81),
]

Incoming: What does the data say about its t1/2? Entry: NC(=O)c1cccc(C2C[C@H]3CC[C@H](C2)N3CCCc2ccccc2)c1 (relative stereo; 24b)
Outgoing: 11

Incoming: Could you do the same for NC(=O)c1cccc(C2C[C@H]3CC[C@H](C2)N3Cc2c(F)cccc2F)c1 (relative stereo; 26a) , please?
Outgoing: 26

---

The following molecules are shown together with reported Ki values.
Molecular target: Delta-type opioid receptor (Homo sapiens, UniProt P41143)
Sequence (P41143 whole entry): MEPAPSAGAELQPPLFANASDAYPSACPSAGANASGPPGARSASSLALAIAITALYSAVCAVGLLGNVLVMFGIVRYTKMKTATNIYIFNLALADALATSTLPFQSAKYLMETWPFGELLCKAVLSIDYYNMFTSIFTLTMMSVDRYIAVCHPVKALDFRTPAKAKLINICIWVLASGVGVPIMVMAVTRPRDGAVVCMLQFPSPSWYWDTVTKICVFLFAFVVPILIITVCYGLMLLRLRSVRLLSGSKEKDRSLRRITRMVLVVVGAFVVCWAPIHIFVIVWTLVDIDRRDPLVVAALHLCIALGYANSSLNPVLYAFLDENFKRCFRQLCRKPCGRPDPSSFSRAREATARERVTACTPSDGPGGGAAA
Experiment: Displacement of [3H]DPN from recombinant human delta opioid receptor expressed in CHOK1 cell membranes
State the answer as a number, implicitly in µM.

The following molecules have reported results that may help.
# molecule, units-label, numeric-readout
measured = [
    ("Oc1cccc(C2C[C@H]3CC[C@H](C2)N3Cc2c(F)cccc2F)c1 (relative stereo; 18b)", "µM", 2.51),
    ("NC(=O)c1cccc(C2C[C@H]3CC[C@H](C2)N3CCCc2ccccc2)c1 (relative stereo; 24b)", "µM", 0.2),
    ("O=C1c2ccccc2C(=O)N1CCCCN1[C@@H]2CC[C@@H]1CC(c1cccc(O)c1)C2 (relative stereo; 21a)", "µM", 0.0251),
]

Kindly consider the entry below.
Incoming: Query Ki on Delta-type opioid receptor (Homo sapiens, UniProt P41143) for CCCCCCCN1[C@@H]2CC[C@@H]1CC(c1cccc(O)c1)C2 (relative stereo; 17a)
Outgoing: 0.00251

---

The following compounds are shown together with reported Intrinsic activity values.
Target: Mu-type opioid receptor (Homo sapiens, UniProt P35372)
Sequence (P35372 whole entry): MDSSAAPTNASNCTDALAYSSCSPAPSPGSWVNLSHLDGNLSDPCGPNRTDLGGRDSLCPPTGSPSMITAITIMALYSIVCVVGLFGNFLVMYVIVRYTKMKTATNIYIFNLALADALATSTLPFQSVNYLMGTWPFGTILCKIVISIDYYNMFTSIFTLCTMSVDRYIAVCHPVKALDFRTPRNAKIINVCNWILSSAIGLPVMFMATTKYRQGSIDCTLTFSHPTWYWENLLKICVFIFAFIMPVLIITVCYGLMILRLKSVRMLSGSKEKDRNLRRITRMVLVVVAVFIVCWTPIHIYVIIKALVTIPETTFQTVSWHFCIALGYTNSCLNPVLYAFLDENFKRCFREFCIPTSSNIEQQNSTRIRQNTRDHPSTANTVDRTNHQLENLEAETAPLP
Test: Intrinsic activity at recombinant human mu opioid receptor expressed in CHOK1 cells by [35S]GTPgammaS binding assay relative to DAMGO
Type: functional, cell-based
The number alone won't do; follow it with the unit.

The following compounds have reported results that may help.
# compound, Intrinsic activity
measured = [
    ("Oc1cccc(C2C[C@H]3CC[C@H](C2)N3CCCOc2ccccc2)c1 (relative stereo; 19b)", "85%"),
    ("CCCCCCCN1[C@@H]2CC[C@@H]1CC(c1cccc(O)c1)C2 (relative stereo; 17b)", "62%"),
    ("O=C(CN1[C@@H]2CC[C@@H]1CC(c1cccc(O)c1)C2)C1CCCCC1 (relative stereo; 22b)", "57%"),
    ("NC(=O)c1cccc(C2C[C@H]3CC[C@H](C2)N3CCCCN2C(=O)c3ccccc3C2=O)c1 (relative stereo; 29a)", "0%"),
    ("O=C(CN1[C@@H]2CC[C@@H]1CC(c1cccc(O)c1)C2)C1CCCCC1 (relative stereo; 22a)", "33%"),
]

Incoming: Query Intrinsic activity on Mu-type opioid receptor (Homo sapiens, UniProt P35372) for NC(=O)c1cccc(C2C[C@H]3CC[C@H](C2)N3CCCOc2ccccc2)c1 (stereo partly specified)
Outgoing: 95%
